B1: HDV Ribozyme (parent)
chain: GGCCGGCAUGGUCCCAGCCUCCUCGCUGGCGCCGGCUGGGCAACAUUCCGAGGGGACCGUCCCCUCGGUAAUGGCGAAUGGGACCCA

# Variants of: B1
# TEST_DETAILS: self-cleavage, relative activity (ratio to wild type); higher = more cleavage; co-transcriptional
Examples of variants with documented self-cleavage follow.

[
  {
    "VARIANT": "C3G U47A",
    "self-cleavage": 0.594
  },
  {
    "VARIANT": "C22U C36U",
    "self-cleavage": 0.254
  },
  {
    "VARIANT": "C33U G34C",
    "self-cleavage": 0.0978
  },
  {
    "VARIANT": "G2A A45G",
    "self-cleavage": 0.0779
  },
  {
    "VARIANT": "C48G U65G",
    "self-cleavage": 0.504
  },
  {
    "VARIANT": "A45U G82U",
    "self-cleavage": 0.529
  },
  {
    "VARIANT": "G34U G67C",
    "self-cleavage": 0.22
  },
  {
    "VARIANT": "G39C C84A",
    "self-cleavage": 0.19
  },
  {
    "VARIANT": "A43G C48A",
    "self-cleavage": 0.81
  },
  {
    "VARIANT": "C75U C84G",
    "self-cleavage": 0.136
  },
  {
    "VARIANT": "G25A C48A",
    "self-cleavage": 0.491
  },
  {
    "VARIANT": "C7G G55U",
    "self-cleavage": 0.17
  },
  {
    "VARIANT": "C7U A83C",
    "self-cleavage": 0.287
  },
  {
    "VARIANT": "G2C C15U",
    "self-cleavage": 0.0563
  },
  {
    "VARIANT": "U72A A87C",
    "self-cleavage": 0.81
  },
  {
    "VARIANT": "G38C C57G",
    "self-cleavage": 0.356
  },
  {
    "VARIANT": "C14U G28C",
    "self-cleavage": 0.237
  },
  {
    "VARIANT": "A42U A70C",
    "self-cleavage": 0.636
  },
  {
    "VARIANT": "G54C C57A",
    "self-cleavage": 0.937
  },
  {
    "VARIANT": "C15G C18A",
    "self-cleavage": 0.0997
  },
  {
    "VARIANT": "G38C G55C",
    "self-cleavage": 0.46
  },
  {
    "VARIANT": "G53C U69A",
    "self-cleavage": 0.77
  },
  {
    "VARIANT": "U23G G81C",
    "self-cleavage": 0.166
  },
  {
    "VARIANT": "C21G G35C",
    "self-cleavage": 0.178
  },
  {
    "VARIANT": "G17C A43U",
    "self-cleavage": 0.115
  },
  {
    "VARIANT": "G59A A70U",
    "self-cleavage": 0.941
  },
  {
    "VARIANT": "G68U A70C",
    "self-cleavage": 0.582
  },
  {
    "VARIANT": "C57G U69A",
    "self-cleavage": 0.767
  },
  {
    "VARIANT": "C13U A71G",
    "self-cleavage": 0.429
  },
  {
    "VARIANT": "C64G G81U",
    "self-cleavage": 0.312
  },
  {
    "VARIANT": "G25U A42U",
    "self-cleavage": 0.173
  },
  {
    "VARIANT": "C62U G80A",
    "self-cleavage": 0.348
  },
  {
    "VARIANT": "C58U G80U",
    "self-cleavage": 0.132
  },
  {
    "VARIANT": "A16U C33A",
    "self-cleavage": 0.0639
  },
  {
    "VARIANT": "C14U C32G",
    "self-cleavage": 0.0462
  },
  {
    "VARIANT": "U37C A71G",
    "self-cleavage": 0.751
  },
  {
    "VARIANT": "G28A A77U",
    "self-cleavage": 0.104
  },
  {
    "VARIANT": "G67A U79A",
    "self-cleavage": 0.982
  },
  {
    "VARIANT": "C13A G50U",
    "self-cleavage": 0.282
  },
  {
    "VARIANT": "G6U G38A",
    "self-cleavage": 0.0396
  },
  {
    "VARIANT": "G38C G52C",
    "self-cleavage": 0
  },
  {
    "VARIANT": "G35C G82C",
    "self-cleavage": 0.0519
  },
  {
    "VARIANT": "C3G G17A",
    "self-cleavage": 0.102
  },
  {
    "VARIANT": "U9A G82U",
    "self-cleavage": 0.375
  },
  {
    "VARIANT": "G35U G39U",
    "self-cleavage": 0.0941
  },
  {
    "VARIANT": "G2A G34U",
    "self-cleavage": 0.0449
  }
]

Data origin: the RNAGym collection of RNA variant scans (doi:10.7554/elife.80360)
